From: ChEMBL document CHEMBL3734689

- subject-of-test: Histone acetyltransferase KAT8 (Homo sapiens)
- method-notes: Inhibition of recombinant N-terminal His6-tagged KAT8 (unknown origin) expressed in Escherichia Coli BL21 DE3 cells assessed as reduction of Co A level using histone H4 substrate after 15 mins by CPM fluorescence assay
measurement-type: logIC50

O=C(O)c1c(O)cccc1CCCCCCCCCCCO; 2.72
CCCCCCCCCCCCCCCc1ccc(O)c(C(=O)O)c1; 2.42
CCCCCCCCCCc1cccc(O)c1C(=O)O; 2.09

---

- subject-of-test: Histone acetyltransferase KAT8 (Homo sapiens) (UniProt Q9H7Z6)
- Sequence (Q9H7Z6 whole entry): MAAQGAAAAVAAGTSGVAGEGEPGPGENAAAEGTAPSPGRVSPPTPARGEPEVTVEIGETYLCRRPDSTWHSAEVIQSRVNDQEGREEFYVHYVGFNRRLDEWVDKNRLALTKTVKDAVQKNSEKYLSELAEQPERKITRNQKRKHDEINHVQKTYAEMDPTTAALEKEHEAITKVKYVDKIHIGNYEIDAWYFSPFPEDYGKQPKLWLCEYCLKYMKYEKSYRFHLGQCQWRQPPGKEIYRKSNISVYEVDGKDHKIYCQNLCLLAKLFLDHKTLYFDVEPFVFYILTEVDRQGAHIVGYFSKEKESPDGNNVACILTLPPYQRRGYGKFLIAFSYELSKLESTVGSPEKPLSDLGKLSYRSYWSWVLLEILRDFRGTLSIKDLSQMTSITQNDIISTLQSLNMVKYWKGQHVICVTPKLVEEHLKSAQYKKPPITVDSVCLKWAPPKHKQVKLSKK
- method-notes: Inhibition of recombinant N-terminal His6-tagged KAT8 (unknown origin) expressed in Escherichia Coli BL21 DE3 cells assessed as reduction of Co A level using histone H4 substrate at 400 uM after 15 mins by CPM fluorescence assay
Calls of active or inactive are those of the source. The rule behind the calls is not given here.
measurement-type: inhibition

Worked set:
O=C(O)c1c(O)cccc1CCCCCO; inactive
CCCCCc1cccc(O)c1C(=O)O; inactive
O=C(O)c1c(O)cccc1CCCCCCCCCCCO; > 50%
CC1=NN(c2ccc(C(=O)O)cc2)C(=O)/C1=C/c1ccc(-c2cc(C)c(C)cc2[N+](=O)[O-])o1; inactive
CCCCCCCCCCc1cccc(O)c1C(=O)O; > 50%

Recorded inhibition (compound "CCCCCCCCCCc1ccc(O)c(C(=O)O)c1" ): > 50%

Recorded inhibition (compound "CCCCCc1ccc(O)c(C(=O)O)c1" ): inactive

Recorded inhibition (compound "CCCCCCCCCCCCCCCc1ccc(O)c(C(=O)O)c1" ): > 50%

Recorded inhibition (compound "CCCCCCCSCC(=O)c1ccccc1O" ): inactive

---

- subject-of-test: Histone acetyltransferase KAT8 (Homo sapiens) (UniProt Q9H7Z6)
- method-notes: Inhibition of recombinant N-terminal His6-tagged KAT8 (unknown origin) expressed in Escherichia Coli BL21 DE3 cells assessed as reduction of Co A level using histone H4 substrate after 15 mins by CPM fluorescence assay
Known logIC50 of a selection of compounds

Worked set:
CCCCCc1ccc(O)c(C(=O)O)c1; > 2.8
CCCCCc1cccc(O)c1C(=O)O; > 2.8

From here, focus on the item given below.
Recorded logIC50 (compound "CC1=NN(c2ccc(C(=O)O)cc2)C(=O)/C1=C/c1ccc(-c2cc(C)c(C)cc2[N+](=O)[O-])o1" ): > 2.8
